Molecular target: T1, lecithin:cholesterol acyltransferase (LCAT), purified from human plasma (human, UniProt P04180 25-440)
T1 sequence (looked up): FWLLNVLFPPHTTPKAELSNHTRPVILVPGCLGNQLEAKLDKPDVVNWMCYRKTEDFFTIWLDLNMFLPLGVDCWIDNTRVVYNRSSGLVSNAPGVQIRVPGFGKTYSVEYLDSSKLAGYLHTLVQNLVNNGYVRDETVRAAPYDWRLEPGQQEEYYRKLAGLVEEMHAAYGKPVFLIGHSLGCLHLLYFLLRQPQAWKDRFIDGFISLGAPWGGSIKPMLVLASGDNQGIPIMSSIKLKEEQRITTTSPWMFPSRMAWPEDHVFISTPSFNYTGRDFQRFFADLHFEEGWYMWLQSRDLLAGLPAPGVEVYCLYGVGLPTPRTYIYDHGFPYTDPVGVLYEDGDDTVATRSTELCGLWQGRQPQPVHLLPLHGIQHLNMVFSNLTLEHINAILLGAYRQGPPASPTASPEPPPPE
Test: cell-based or functional assay
Non-standard residues stand in square brackets, D forms with d. No end group written: not given here. Aib = CC(C)(N)C(=O)O
Endpoint label: ACTIVITY (%) LCAT

[
  {
    "Binder": "PVLDLWRELLNE[Aib]LEALKQKLK [peptide 41]",
    "Unit symbol": "%",
    "Numeric result": 25
  },
  {
    "Binder": "PVLELFENLWERLLDALQKKLK [peptide 149]",
    "Unit symbol": "%",
    "Numeric result": 63
  },
  {
    "Binder": "Ac-PVLELLKELLEELKQKLK-NH2 [peptide 207]",
    "Unit symbol": "%",
    "Numeric result": 50
  },
  {
    "Binder": "PVLDLFKELLQELLEALKQKLK [peptide 11]",
    "Unit symbol": "%",
    "Numeric result": 72
  },
  {
    "Binder": "PVLELFENLLERLWDALQKKLK [peptide 163]",
    "Unit symbol": "%",
    "Numeric result": 26
  },
  {
    "Binder": "PVLDLFREKLNE[Aib]LEALKQKLK [peptide 46]",
    "Unit symbol": "%",
    "Numeric result": 23
  },
  {
    "Binder": "PVLELFLNLWERLLDALQKKLK [peptide 155]",
    "Unit symbol": "%",
    "Numeric result": 38
  },
  {
    "Binder": "EWLEAFYKKVLEKLKELF [peptide 246]",
    "Unit symbol": "%",
    "Numeric result": 4
  },
  {
    "Binder": "PVLELFENGLERLLDALQKKLK [peptide 167]",
    "Unit symbol": "%",
    "Numeric result": 18
  },
  {
    "Binder": "[dP][dV][dL][dE][dL][dF][dE][dN][dL][dL][dE][dR][dL][dL][dD][dA][dL][dQ][dK][dK][dL][dK] [peptide 174]",
    "Unit symbol": "%",
    "Numeric result": 13
  },
  {
    "Binder": "PVLDLFREGWEELKQKLK [peptide 224]",
    "Unit symbol": "%",
    "Numeric result": 8
  },
  {
    "Binder": "PVLDLFRELLNL[Aib]LEALKEKLK [peptide 102]",
    "Unit symbol": "%",
    "Numeric result": 2
  },
  {
    "Binder": "DWFKAFYDKFFEKFKEFF [peptide 247]",
    "Unit symbol": "%",
    "Numeric result": 3
  },
  {
    "Binder": "PVLDEFREKLNE[Aib]LEALKQKLK [peptide 45]",
    "Unit symbol": "%",
    "Numeric result": 24
  },
  {
    "Binder": "PVLDEFREKLNEPLEALKQKLK [peptide 113]",
    "Unit symbol": "%",
    "Numeric result": 0
  },
  {
    "Binder": "PVLELFKELLQELLEALKQKLK [peptide 17]",
    "Unit symbol": "%",
    "Numeric result": 59
  },
  {
    "Binder": "DWFKAFYDKVAEKFKEAF [peptide 243]",
    "Unit symbol": "%",
    "Numeric result": 5
  }
]
